# tested-target: T1, MORC3-CW E431A mutant (human, UniProt Q14149 401-455, E431A)
# T1 sequence (looked up): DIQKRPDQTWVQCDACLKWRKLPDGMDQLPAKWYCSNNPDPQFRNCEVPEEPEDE
# assay-procedure: other fluorescence titration
Ends that are not written are not given here.
experimental-readout: pKd
Reminder that pKd means the negative base-10 logarithm of the concentration expressed in mol/L.

Request: Data request, read-out pKd, for ARTK(Me3)QTARKSTG (peptide, UniProt P68431 2-13, looked up) [histone H3 peptide trimethylated at lysine 4 (residues 1-12)]
Response: 6.22
